Test system: EPHB2 (UniProt P29323)
Sequence (P29323 whole entry, looked up): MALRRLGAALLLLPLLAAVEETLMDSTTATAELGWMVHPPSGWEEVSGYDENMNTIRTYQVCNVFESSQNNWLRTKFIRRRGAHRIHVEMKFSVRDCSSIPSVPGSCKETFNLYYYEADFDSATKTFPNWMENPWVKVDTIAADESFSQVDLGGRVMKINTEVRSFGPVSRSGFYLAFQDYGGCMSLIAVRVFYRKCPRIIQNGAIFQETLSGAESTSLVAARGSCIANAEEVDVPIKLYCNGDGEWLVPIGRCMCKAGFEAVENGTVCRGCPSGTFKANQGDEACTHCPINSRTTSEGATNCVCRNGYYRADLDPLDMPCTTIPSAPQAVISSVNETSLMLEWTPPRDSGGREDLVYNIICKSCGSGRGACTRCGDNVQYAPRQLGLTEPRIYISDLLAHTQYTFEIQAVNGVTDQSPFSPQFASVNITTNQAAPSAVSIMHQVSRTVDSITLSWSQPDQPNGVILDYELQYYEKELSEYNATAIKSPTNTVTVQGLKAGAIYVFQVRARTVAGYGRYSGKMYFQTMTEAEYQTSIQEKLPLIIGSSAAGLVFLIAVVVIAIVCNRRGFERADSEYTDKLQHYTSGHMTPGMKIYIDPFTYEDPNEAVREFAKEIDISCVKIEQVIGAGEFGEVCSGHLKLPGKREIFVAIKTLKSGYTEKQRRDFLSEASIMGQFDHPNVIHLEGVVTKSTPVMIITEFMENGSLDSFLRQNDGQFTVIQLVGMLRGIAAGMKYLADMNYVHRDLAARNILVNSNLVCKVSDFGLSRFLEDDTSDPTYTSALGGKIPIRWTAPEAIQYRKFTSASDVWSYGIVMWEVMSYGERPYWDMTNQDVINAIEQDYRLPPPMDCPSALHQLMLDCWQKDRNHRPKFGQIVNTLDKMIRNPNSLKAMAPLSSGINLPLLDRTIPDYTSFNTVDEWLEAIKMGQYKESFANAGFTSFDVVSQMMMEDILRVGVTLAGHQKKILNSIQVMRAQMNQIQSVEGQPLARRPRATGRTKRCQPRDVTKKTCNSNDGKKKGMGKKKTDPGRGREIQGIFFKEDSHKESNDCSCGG
Assay summary: phosphorylation enrichment, bacterial display (enrichment ratio); higher = better substrate or ligand; peptides without Tyr show the background
Given measured phosphorylation enrichment, output class 1 if it is greater than or equal to 0.6 and class 0 if not.

Sample answers from the record:
Query sequence: SEELHYFVQNH [UQCRC2_Y207]
Label class: class 1
--
Query sequence: LAGRYYALKSM [CKB_Y174]
Label class: class 0
--
Query sequence: GLTSTYVGIRK [ROBO1_Y932_A933V]
Label class: class 0
--
Query sequence: WVFNHYRWIIW [BRCA2_Y2624_YF]
Label class: class 0

Query string: Hello, I need to know if HMEAVYIDIAD [PITPNA_Y140_V136M] has measured phosphorylation enrichment not below 0.6. Thanks!
Result string: class 1

Query string: Hello, I need to know if KHCEDYVCSFN [DSC1_Y846_YF] has measured phosphorylation enrichment not below 0.6. Thanks!
Result string: class 0

Query string: Hello, I need to know if SGEKPYKCSVC [ZNF543_Y283_E287V] has measured phosphorylation enrichment not below 0.6. Thanks!
Result string: class 0

Query string: Hello, I need to know if KEAQVYQAFRL [SUCLG2_Y343_K347R] has measured phosphorylation enrichment not below 0.6. Thanks!
Result string: class 1

Query string: Hello, I need to know if CTTIHYNFMGN [TP53_Y234_C238G_YF] has measured phosphorylation enrichment not below 0.6. Thanks!
Result string: class 0

###

Test system: c-Abl (mouse)
Assay summary: phosphorylation enrichment, bacterial display (enrichment ratio); higher = better substrate or ligand; peptides without Tyr show the background
Assay endpoint: phosphorylation enrichment
Lab note: record the figure alone, no unit after it.

Query sequence: SNKELYEKYMI
Assay endpoint: phosphorylation enrichment
Observed value: 0.487

Query string: // map KDQPDYKFQPR [SOX9_Y172_H169Q_YF] to recorded phosphorylation enrichment (system: c-Abl (mouse))
Result string: 0.457

###

Test system: c-Src SH2
Assay summary: SH2 binding enrichment of the phosphorylated peptide, bacterial display (enrichment ratio); higher = better substrate or ligand; peptides without Tyr show the background
Assay endpoint: SH2 binding enrichment
Lab note: record the figure alone, no unit after it.

Below, each entry is followed by its recorded SH2 binding enrichment result.
Query sequence: WVYNHYRWIIW [BRCA2_Y2624]
Test system: c-Src SH2
SH2 binding enrichment: 0.509

Query sequence: MFVKSYTIHFS [F5_Y2153_YF]
Test system: c-Src SH2
SH2 binding enrichment: 0.494

Query sequence: DTDSSYCIPTA [GAB1_Y373]
Test system: c-Src SH2
SH2 binding enrichment: 0.741

Query sequence: AVDMTYDGHPV [FLNB_Y1020_V1018M]
Test system: c-Src SH2
SH2 binding enrichment: 0.461

Query sequence: TTASRYLKVSD [MYOM2_Y871_N869S]
Test system: c-Src SH2
SH2 binding enrichment: 0.515

Query sequence: YRKNTYNVKST [SYNE2_Y575_I574T]
Test system: c-Src SH2
SH2 binding enrichment: 0.46

Query sequence: KVKPIYFHTQG [AR_Y916]
Test system: c-Src SH2
SH2 binding enrichment: 1.37

Query sequence: GKPENYRRLDI [VHL_Y175_V170G]
Test system: c-Src SH2;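 also: peptide library displayed on the E. coli surface as eCPX fusions, selected cells deep-sequenced, score is each peptide's frequency after selection divided by its frequency in the input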
SH2 binding enrichment: 0.508

Query string: Which SH2 binding enrichment value is on record for ADMETYLLEKS [MYH7_Y266_I263M] ?
Result string: 0.523

Query string: Which SH2 binding enrichment value is on record for HFVDEYDQTIE [KRAS_Y32_P34Q] ?
Result string: 0.592

Query string: Which SH2 binding enrichment value is on record for PEADKYRLPYA [FGG_Y300_T303P] ?
Result string: 0.402
